testName: PSAC antagonists in infected red cells, primary screen, cell-based, P. falciparum Indochina, OD700, 18 h (AID 1157)
assayContext: P. falciparum Indochina infected erythrocytes, osmotic lysis OD700, 18 h; higher = more signal, called active from +8 up or from −8 down
Overview of recorded z-score for various compounds
# answer = number (no unit)

Please review the entries below; each comes with its answer.
O=C1OCC=C[C@H]2OC34C=CCN(c5ccc6ccccc6c5)C(=O)[C@H]3N(CCCCCO)C(=O)[C@@H]4[C@@H]12 (stereo partly drawn): 0.162
COC(=O)[C@@]1(Cc2ccccc2CN=[N+]=[N-])N=C(c2ccc(OCCCO)cc2)O[C@H]1c1ccccc1: 3.64

Ask: Sample CO[C@H]1O[C@H](CO)[C@@H](OC(=O)Nc2ccc(C#N)cc2)[C@@H]2OC(=O)[C@H](Cc3cccc(Br)c3)C/C=C/C[C@@H](Cc3cccc(Br)c3)C(=O)O[C@@H]12 — what was its z-score?
Reply: 0.558

Ask: What would you report for O=C1N[C@@H](Cc2ccccc2)C(=O)N2[C@@H]1C[C@@H](C(=O)O)[C@H]2c1ccc(O)cc1 ?
Reply: 0.595

Ask: What would you report for Cc1ccc(C(C)CC(O)C2C=CC3C(=O)N(c4ccccc4)C(=O)C3N2Nc2ccc(C#N)cc2)o1 (stereo not drawn) ?
Reply: -0.397

Ask: What would you report for NC(=O)NCC#Cc1ccc2c(c1)[C@]1(C(=O)N2)[C@H](C(=O)N2CCN(c3ncccn3)CC2)[C@H]2C(=O)O[C@H](c3ccccc3)[C@H](c3ccccc3)N2[C@@H]1c1ccc(OCCO)cc1 ?
Reply: 0.689

Ask: What would you report for CN1C(=O)C2C(C1=O)C1C=C(CCCO)C2C(c2cccs2)N1Cc1cc2c(cc1Br)OCO2 (stereo not drawn) ?
Reply: 1.58

Ask: What would you report for CCOC(=O)C=Cc1cc(F)ccc1O ?
Reply: -1.23

Ask: What would you report for COC(=O)[C@@]1(Cc2ccccc2CN=[N+]=[N-])N=C(c2ccc(OCCCO)cc2)O[C@H]1c1ccccc1CN=[N+]=[N-] ?
Reply: 1.72

Ask: What would you report for C[C@@H]1ON(c2ccc(I)cc2)[C@H](c2ccc(OC(=O)OC(C)(C)C)cc2)[C@H]1C(=O)N1C(=O)OC[C@H]1Cc1ccccc1 ?
Reply: -1.73

Ask: What would you report for Cc1ccccc1C(O)C1C=CC2C(=O)NC(=O)C2N1Nc1ccc(Cl)cc1Cl (stereo not drawn) ?
Reply: 0.975

Ask: What would you report for CO[C@H]1O[C@H](CO)[C@@H](OC(=O)Nc2cccc(F)c2)[C@H](OC(=O)Nc2ccccc2-c2ccccc2)[C@H]1OC(=O)Nc1ccccc1-c1ccccc1 ?
Reply: 0.937

Ask: What would you report for Cc1cccc([C@H]2C[C@H]3C(I)=C[C@@H]2C(=O)[C@]32CO2)c1 ?
Reply: -0.0624

Ask: What would you report for COCCOC(=O)N1C(=O)[C@@]2(c3cc(C#CCNC(N)=O)ccc31)[C@H](c1ccc(OCCO)cc1)N1[C@H](c3ccccc3)[C@H](c3ccccc3)OC(=O)[C@H]1[C@@H]2C(N)=O ?
Reply: 0.0173

Ask: What would you report for NC(=O)[C@H]1[C@@H]2C(=O)O[C@@H](c3ccccc3)[C@@H](c3ccccc3)N2[C@@H](c2ccc(O)cc2)[C@]12C(=O)Nc1ccc(C#CC3=CCCCC3)cc12 ?
Reply: 1.4

Ask: What would you report for Cc1ccc([C@H]2C(C(=O)O)=C[C@@H](C(C)(C)C)N2S(=O)(=O)c2ccc(C)cc2)cc1 ?
Reply: 0.585

Ask: What would you report for C=C(COC)/C(=C/C[C@@H](OC(=O)c1ccncc1)c1ccccc1OCCO)c1cc(C(=O)OC)ccc1OC ?
Reply: 1.02

Ask: What would you report for C=C(CCCC)/C(=C/C[C@H](OC(C)=O)c1ccc(OCCO)cc1)c1cc(C(=O)OC)ccc1OC ?
Reply: 1.48

Ask: What would you report for COc1cc(NN2C(C(O)C3CCCCC3)C=CC3C(=O)N(c4ccccc4)C(=O)C32)cc(OC)c1OC (stereo not drawn) ?
Reply: -1.16

Ask: What would you report for CC=CC(O)C1C=CC2C(=O)NC(=O)C2N1Nc1ccccn1 (stereo not drawn) ?
Reply: 0.998

Ask: What would you report for C=CCNC(=O)[C@H]1[C@@H]2C(=O)O[C@@H](c3ccccc3)[C@@H](c3ccccc3)N2[C@@H](c2ccc(OCCO)cc2)[C@]12C(=O)N(C(=O)OCCOC)c1ccc(C#Cc3ccc(OC)cc3)cc12 ?
Reply: 0.121

Measured values drawn from PubChem BioAssay for this set.
